Values were extracted from PubChem BioAssay (NCI).

tested on: M14 melanoma; test: NCI tumour cell line growth inhibition, 48 h
Please go through the items and note down their TGI.
Provide the reading as a plain figure in µM.

TGI in this record for O=C(OC12CC3CC(CC(C3)C1)C2)c1ccc(NCc2cc(O)ccc2O)cc1 : 5.18

# TGI (compound: CCCCCCc1cc2cc(-c3csc(-c4ccc(OC)cc4)n3)c(=O)oc2cc1O ) is 27.5

Clc1ccccc1NN(Cc1ccccn1)c1ccccc1Cl yielded TGI of 38.3

TGI reported for this compound O=[N+]([O-])c1ccc(N=Nc2c(O)[nH]c3ccc([N+](=O)[O-])cc23)cc1 : 38

GET /value?item= C=C1C(=O)O[C@@H]2C[C@@]3(C)CC(=O)C=C(C)[C@@H]3C[C@H]12 &field=TGI returns 32.7

Entry CC1(C)C(=O)C(O)=CC2C1=CCC1C2(C)C(=O)CC2(C)C(C(C)(O)C(=O)CC(O)C(C)(C)O)C(O)CC12C (configuration not stated) ; TGI = 23.8

Lab note: measured TGI of C=C1CC(COc2ccc3c(C)c(C)c(=O)oc3c2C)(c2ccccc2)OC1=O (configuration not stated) was 4.23

compound CCc1nc(N)nc(N)c1-c1ccc([N+](=O)[O-])c(NCc2ccccc2)c1 , TGI observed: 39.9

Input CC(O)CNC1=CC(=O)C(=O)c2ccccc21 (configuration not stated) . Output TGI: 32.1

###

test system: U251 CNS; assay: NCI tumour cell line growth inhibition, 48 h
Consider the following compounds; for each one, report its TGI.
# number only, unit µM dropped from output

Log: U251 CNS, compound C=C1CC(COc2ccc3c(C)c(C)c(=O)oc3c2C)(c2ccccc2)OC1=O (centres undefined) , TGI = 20.3

Query CC(C)c1cccc(C(C)C)c1NC(=O)C(=O)C(C(=O)c1ccccc1-c1ccccc1)C1OC(=O)c2ccccc21 (centres undefined) on U251 CNS; TGI returned: 25.4

Item CCc1nc(N)nc(N)c1-c1ccc([N+](=O)[O-])c(NCc2ccccc2)c1 ; assay system U251 CNS; TGI reported as 30.1

Kindly note: U251 CNS, CCOC(=O)c1c(NC(=O)c2ccc(C(C)C)cc2)sc2c(CN(C)C)c(O)ccc12 , TGI value reported: 7.13

Sample Cc1ccc(C(=O)/C(=C/c2ccc([N+](=O)[O-])cc2)S(=O)Cc2ccccc2)cc1 (centres undefined) , system: U251 CNS. Its TGI is 2.24

###

test system: SF-268 CNS; experiment: NCI tumour cell line growth inhibition, 48 h
Peptide text beside a SMILES is read from it. * marks the point of attachment. X26 = Clc1c(Cl)c(Cl)c(O*)c(Cl)c1Cl; Boc = CC(C)(C)OC(=O)*; OBn = c1ccc(CO*)cc1; Bn = c1ccc(C*)cc1
I'd be grateful if you could share measured TGI for these entries.

The molecule listed as COc1ccc(OC)c(-c2cc(-c3ccccc3)nn2-c2ccc(S(=O)(=O)NC(C)=O)cc2)c1 has a reported TGI of 32.2 µM

O=C1CC(c2ccccc2Cl)C2(C(=O)NC(=O)NC2=O)C(c2ccccc2Cl)C1 (configuration not stated) has a reported TGI of > 100 µM

Reported TGI of CCN(CC)c1ccc(NC(=S)NN(C)C)cc1 : > 10 µM

// field: TGI; key: Cc1ccc(C(=O)/C(=C/c2ccc([N+](=O)[O-])cc2)S(=O)Cc2ccccc2)cc1 (configuration not stated) ; value = 3.72 µM

The measured TGI associated with C[N+]1(CCN=C=NC2CCCCC2)CCOCC1 reads > 100 µM

Lab book: TGI of C/C(=N\O)c1ccc(Nc2cc(-n3nnc4ccccc43)nc3ccccc23)cc1 noted as > 41.9 µM

The recorded TGI for O=C(CC(C(=O)c1cccs1)c1ccc2c(c1)OCO2)c1ccc(Br)cc1 (configuration not stated) is > 100 µM

Entry CCCCCCc1cc2cc(-c3csc(-c4ccc(OC)cc4)n3)c(=O)oc2cc1O ; TGI = 14.9 µM

Value of TGI reported for the molecule CCOC(=O)C1(C(=O)OCC)CCC(C(OC)OC)C(CC(=O)OC)C1 (configuration not stated) is > 10 µM

For this molecule ( N#C/C(=C\c1cccc(Br)c1)c1nc2ccccc2c(=O)[nH]1 ), measured TGI is > 100 µM

Form field TGI, entry O=C(Nc1ccc(OC(F)(F)F)cc1)c1sccc1NCc1ccnc2ccccc12 : > 100 µM

So for N#Cc1nc(C2CCC(=O)O2)oc1N (configuration not stated) , the logged TGI turned out to be > 100 µM

Field TGI (entry CC(C)CC(NC(=O)C(CCC(=O)OCc1ccccc1)NC(=O)OC(C)(C)C)C(=O)NC(COCc1ccccc1)C(=O)NC(Cc1ccccc1)C(=O)Oc1c(Cl)c(Cl)c(Cl)c(Cl)c1Cl (configuration not stated) (Boc-E(OBn)LS(Bn)F-X26; configuration not given here) ) reads > 100 µM

// COCC#C[C@@]1(O)CCCCC1CC(OC)OC (some centres not stated) : TGI value = > 100 µM

Summary for this molecule, Cc1nnc2n1-c1ccccc1N(Cc1ccccc1)CC2 : TGI is > 100 µM

response.value for CC[O-].CC[O-].O=C1C(=C([O-])c2ccccc2)C(=O)c2ccccc21.O=C1C(=C([O-])c2ccccc2)C(=O)c2ccccc21.[Ti+4] (field: TGI) = > 10 µM

Field TGI (entry COc1cccc(N2C(=O)CS(=O)(=O)C2c2cccc(Oc3ccccc3)c2)c1 (configuration not stated) ) reads > 100 µM

Looking up Cc1cc(S(=O)(=O)Nc2n[nH]c(Nc3ccccc3)n2)c(SCC(=O)O)cc1Cl , I found its TGI recorded as > 100 µM

Entry COC(=O)c1nc(NN)[nH]c(=O)c1CCCCCc1c(C(=O)OC)[nH]c(NN)cc1=O ; TGI = > 100 µM

response.value for N#Cc1ccc(-c2nc(C#N)c(N)o2)cc1 (field: TGI) = > 10 µM

Memo: CC(C)N(C(C)C)[PH+]1O[PH+](N(C(C)C)C(C)C)O[PH+](N(C(C)C)C(C)C)O[PH+](N(C(C)C)C(C)C)O[PH+](N(C(C)C)C(C)C)O1.[C-]#[O+].[C-]#[O+].[C-]#[O+].[C-]#[O+].[C-]#[O+].[C-]#[O+].[C-]#[O+].[Cr].[Cr] (configuration not stated) , reported TGI: > 100 µM

Recorded result, Clc1ccc([O][In]([O]c2ccc(Cl)cn2)[O]c2ccc(Cl)cn2)nc1 , TGI: > 100 µM

Per the records, this molecule ( COc1ccc(OC/C(N=Cc2ccncc2)=N/NC(=O)c2ccncc2)cc1 ) has TGI equal to > 100 µM

Field TGI (entry CCC(=O)Nc1ccc(NS(=O)(=O)c2ccc(Cl)cc2)cc1 ) reads > 100 µM

Short answer for NS(=O)(=O)c1ccc(N2Cc3cc(Cl)ccc3OC3=C2C(=O)N(CC2CCCCC2)C3=O)cc1 : TGI was 2.69 µM

Lookup result for CC(=O)OCC(=O)O[C@@H]1[C@H]2[C@@H](OC(=O)c3ccccc3)[C@@H](C)C[C@]2(O)[C@H](OC(C)=O)[C@@]2(C)C[C@]1(OC(C)=O)C[C@H]1C(=O)C(C)(C)[C@@H](OC(C)=O)[C@@H]12 ; measured TGI: > 25 µM

molecule Cc1cn(CCCCCOC(=O)NC(CCCNC(N)=O)C(=O)O)c(=O)[nH]c1=O (configuration not stated) , TGI observed: > 100 µM

CCOC(=O)c1c(NC(=O)c2ccc(C(C)C)cc2)sc2c(CN(C)C)c(O)ccc12 yielded TGI of 4.06 µM

Kindly note the recorded TGI for O=c1nc(-c2ccccc2)c2c3c(cccn13)CCC2 , which is > 100 µM

Measured TGI of N=C(N)c1ccc(-c2ccc(-c3ccc(Cl)cc3Cl)o2)cc1 : 4.65 µM

The measured TGI associated with COc1cc(OC)cc(Oc2nc3cc(F)c(F)cc3nc2-c2ccccc2)c1 reads > 100 µM

Entry CCOC(=O)Cn1nnc2cc(Nc3c(C)[n+]([O-])c4cc(F)c(OCC)cc4[n+]3[O-])ccc21 ; TGI = > 100 µM

O=[N+]([O-])/C(Cl)=C(/C(Cl)=C(Cl)Cl)N1CCCCC1 has a reported TGI of 75.1 µM

Entry NCCN(CCN(C(=O)Nc1ccccc1)c1ccccc1)C(=O)Nc1ccccc1 ; TGI = 49 µM

The reported TGI of the molecule CC(C)N(C(=O)C12C3C4C1C1C2C3C41C(O)C(C)(C)C)C(C)C (configuration not stated) was > 50 µM

The measured TGI associated with Cc1ccc2c(c1C)CC1(Cc3c(C)ccc(C)c3C1=O)C2=O (configuration not stated) reads > 100 µM

Input Cn1c2c(c3ccccc31)CCN1C(=O)C34CCCC3CC21S4 (configuration not stated) . Output TGI: > 100 µM
